- Tested on: Klebsiella pneumonia MDR clinical isolates
- Type: cell-based
- Condition Notes: 18 h
Ends that are not written are not given here.
Recorded MIC D7 values for a group of sequences are listed next.

Sequence Text: ILKKWWKTSKGLLGGLLGKVTSVIKGLKNI [SEQ ID No. 6]
Assayed System: Klebsiella pneumonia MDR clinical isolates
Measure: MIC D7
Value: 4 µM

Incoming: Annotate the sequence LKKWWKTSKGLLGGLLGKVTSVIK [SEQ ID No. 13] with its measured MIC D7.
Outgoing: <8 µM

Incoming: Answer with the recorded MIC D7 of ILKKWWKTSKGLLGGLLGGVTSVIKKLKKI [SEQ ID No. 7] only.
Outgoing: <2 µM

Incoming: Give the reported MIC D7 for this sequence. ILKKWWKTSGGLLGGLLGKVTSVIKGLNNI [SEQ ID No. 4]
Outgoing: <2 µM
